Molecular target: T1, human MHC class II DR protein (DRA*0101/DRB1*0401), purified from PRIESS cells (human, UniProt P01903 26-254; P01911 30-266, limits assumed)
T1 construct: mature; also called HLA-DR protein; MHCII
T1 MHC II alpha: not shown
T1 MHC II beta: not shown
Test: SPR (BIAcore), MHCII on CM5 chip
koff reference

Binder	koff / s⁻¹
MS-GPC-8-6-45 Fab (Fab, V domains shown, Fab: VH-CH1 with FLAG tag and STREP tag II, VL-CL; VH residue 1 is Q in Fab) VH: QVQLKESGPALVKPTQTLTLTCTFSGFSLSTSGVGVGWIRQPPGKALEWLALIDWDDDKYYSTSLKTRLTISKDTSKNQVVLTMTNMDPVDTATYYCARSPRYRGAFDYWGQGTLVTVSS VL: DIVLTQPPSVSGAPGQRVTISCSGSEPNIGSNYVFWYQQLPGTAPKLLIYDNNQRPSGVPDRFSGSKSGTSASLAITGLQSEDEADYYCQSYDYDHYVFGGGTKLTVLG	0.00103
MS-GPC-8-27-10 Fab (Fab, V domains shown, Fab: VH-CH1 with FLAG tag and STREP tag II, VL-CL; VH residue 1 is Q in Fab) VH: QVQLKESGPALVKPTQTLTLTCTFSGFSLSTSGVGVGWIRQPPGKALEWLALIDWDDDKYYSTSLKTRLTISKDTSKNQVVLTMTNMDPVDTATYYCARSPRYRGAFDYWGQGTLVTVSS VL: DIVLTQPPSVSGAPGQRVTISCSGSESNIGANYVNWYQQLPGTAPKLLIYDNNQRPSGVPDRFSGSKSGTSASLAITGLQSEDEADYYCQSYDMNVHVFGGGTKLTVLG	0.00053
MS-GPC-8-6-19 Fab (Fab, V domains shown, Fab: VH-CH1 with FLAG tag and STREP tag II, VL-CL; VH residue 1 is Q in Fab) VH: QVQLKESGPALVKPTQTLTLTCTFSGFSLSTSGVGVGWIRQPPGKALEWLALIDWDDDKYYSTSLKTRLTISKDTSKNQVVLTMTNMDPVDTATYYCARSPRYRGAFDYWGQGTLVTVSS VL: DIVLTQPPSVSGAPGQRVTISCSGSESNIGSNYVAWYQQLPGTAPKLLIYDNNQRPSGVPDRFSGSKSGTSASLAITGLQSEDEADYYCQSYDYDHYVFGGGTKLTVLG	0.001
